Measured Ki of individual entries
- target: Melatonin receptor type 1A (Homo sapiens, UniProt P48039)
- Sequence (P48039 whole entry): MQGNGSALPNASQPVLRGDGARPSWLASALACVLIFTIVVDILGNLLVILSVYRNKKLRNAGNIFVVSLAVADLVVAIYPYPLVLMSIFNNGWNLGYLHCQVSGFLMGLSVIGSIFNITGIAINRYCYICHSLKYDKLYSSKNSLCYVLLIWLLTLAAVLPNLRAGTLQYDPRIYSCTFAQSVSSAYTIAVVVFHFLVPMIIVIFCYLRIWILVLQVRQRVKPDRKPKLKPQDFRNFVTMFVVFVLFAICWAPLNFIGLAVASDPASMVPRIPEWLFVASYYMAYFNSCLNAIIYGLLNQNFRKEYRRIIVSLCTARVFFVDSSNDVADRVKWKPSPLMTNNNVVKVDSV
- procedure_text: Binding affinity against human Melatonin receptor type 1A by displacement of [125I]iodomelatonin stably expressed in CHO cells
- Type: cell-based
endpoint_name: Ki (nM)

• CCC(=O)NCCc1ccnc2ccc(OC)cc12 = 6.9
• CCCC(=O)NCCc1ccnc2ccc(OC)cc12 = 2.2

---

- target: Melatonin receptor type 1B (Homo sapiens)
- Sequence (P49286 whole entry): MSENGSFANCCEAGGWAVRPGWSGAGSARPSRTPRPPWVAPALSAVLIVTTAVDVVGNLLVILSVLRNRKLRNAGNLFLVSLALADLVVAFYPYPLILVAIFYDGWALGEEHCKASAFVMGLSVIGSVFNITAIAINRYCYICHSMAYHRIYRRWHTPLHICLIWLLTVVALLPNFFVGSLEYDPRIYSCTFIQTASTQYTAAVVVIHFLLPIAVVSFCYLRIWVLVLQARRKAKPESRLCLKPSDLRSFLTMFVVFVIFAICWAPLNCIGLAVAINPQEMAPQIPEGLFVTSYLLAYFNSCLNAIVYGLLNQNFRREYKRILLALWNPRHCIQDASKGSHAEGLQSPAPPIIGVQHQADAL
endpoint_name: Ki (nM)

* CCC(=O)NCCc1ccnc2ccc(OC)cc12 | 0.96
